# target_system: STK16 (human) (UniProt O75716)
# Sequence (O75716 whole entry, looked up): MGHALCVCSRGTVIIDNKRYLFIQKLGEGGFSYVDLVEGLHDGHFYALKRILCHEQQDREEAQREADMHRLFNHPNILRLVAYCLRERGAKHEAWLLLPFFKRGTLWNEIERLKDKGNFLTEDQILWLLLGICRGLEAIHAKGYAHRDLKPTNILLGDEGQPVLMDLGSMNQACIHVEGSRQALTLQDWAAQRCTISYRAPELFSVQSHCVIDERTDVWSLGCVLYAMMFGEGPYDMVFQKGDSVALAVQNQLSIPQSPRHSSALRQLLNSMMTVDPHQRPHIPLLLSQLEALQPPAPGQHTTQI
# assay_summary: radiometric filter-binding kinase assay, Kinase HotSpot
# condition_label: compound 0.5 µM; ATP 10 µM
For each entry below, report its residual activity value.
Answers are plain numbers, in %.

The examples below pair each entry with its known result.
COc1ccc(-c2cnc3c(-c4ccsc4)cnn3c2)cc1 ... 66.9
Clc1ccc(Nc2nnc(Cc3ccncc3)c3ccccc23)cc1 ... 93.5

Next item in the queue.
Please give measured residual activity of the following entry: `O=C1Cc2c([nH]c3ccc([N+](=O)[O-])cc23)-c2ccccc2N1`
93.1

----------
# target_system: PNCK (human) (UniProt Q6P2M8)
# Sequence (Q6P2M8 whole entry, looked up): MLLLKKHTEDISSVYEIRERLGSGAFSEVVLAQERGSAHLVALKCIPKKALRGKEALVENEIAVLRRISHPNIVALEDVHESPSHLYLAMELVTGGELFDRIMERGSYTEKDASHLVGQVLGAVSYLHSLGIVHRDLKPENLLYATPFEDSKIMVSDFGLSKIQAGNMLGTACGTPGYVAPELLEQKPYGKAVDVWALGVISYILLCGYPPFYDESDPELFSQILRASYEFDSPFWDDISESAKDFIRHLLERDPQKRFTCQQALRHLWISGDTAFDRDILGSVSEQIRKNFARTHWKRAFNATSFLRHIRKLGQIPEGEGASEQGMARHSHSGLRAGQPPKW
# assay_summary: radiometric filter-binding kinase assay, Kinase HotSpot
# condition_label: compound 0.5 µM; ATP 10 µM
Would you kindly list residual activity for each of these compounds?
Numbers only, in %.

CCCNC(=O)Nc1ccc(Oc2ncnc3cc(OC)c(OC)cc23)cc1Cl ... 95.4
Cc1ccc(NC(=O)c2ccc(CN3CCN(C)CC3)cc2)cc1Nc1nc(-c2cccnc2)cs1 ... 97
Nc1n[nH]c2nnc(-c3c(-c4ccccc4)nn4ccccc34)cc12 ... 99.6
O=C(NC(NC(=S)Nc1ccc(F)c([N+](=O)[O-])c1)C(Cl)(Cl)Cl)C(c1ccccc1)c1ccccc1 (configuration not stated) ... 115
COc1cc2nccc(Oc3ccc(NC(=S)NC(=O)c4ccccc4C)cc3)c2cc1OC ... 93.2
O=c1cc(-c2cccc3c2Sc2ccccc2S3)oc(N2CCOCC2)c1 ... 109

Proceed to the following item.
Tell me residual activity reported for `CC(C)n1cnc2c(Nc3cccc(Cl)c3)nc(NCCO)nc21`
100

----------
# target_system: MAPK1 (human) (UniProt P28482)
# Sequence (P28482 whole entry, looked up): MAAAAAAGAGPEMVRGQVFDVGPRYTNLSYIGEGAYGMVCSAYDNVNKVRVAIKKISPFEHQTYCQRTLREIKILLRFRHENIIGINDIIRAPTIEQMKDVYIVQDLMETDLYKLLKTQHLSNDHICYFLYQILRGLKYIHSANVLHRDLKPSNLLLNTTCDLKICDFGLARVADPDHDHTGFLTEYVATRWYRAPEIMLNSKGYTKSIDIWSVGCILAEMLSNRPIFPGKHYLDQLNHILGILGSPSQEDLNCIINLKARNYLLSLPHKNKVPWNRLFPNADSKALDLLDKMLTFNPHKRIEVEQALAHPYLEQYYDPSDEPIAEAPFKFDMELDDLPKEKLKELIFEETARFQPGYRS
# assay_summary: radiometric filter-binding kinase assay, Kinase HotSpot
# condition_label: compound 0.5 µM; ATP 10 µM
observation_type: residual activity (%)
Give bare numbers, in %.

Solved entries:
CC(C)[C@H](CO)Nc1nc(Nc2cccc(Cl)c2)c2ncn(C(C)C)c2n1 ... 86.7
O=C1Cc2c([nH]c3ccc([N+](=O)[O-])cc23)-c2ccccc2N1 ... 106
O=C(NC(NC(=S)Nc1ccc(F)c([N+](=O)[O-])c1)C(Cl)(Cl)Cl)C(c1ccccc1)c1ccccc1 (stereo unspecified) ... 97.6
CC(C)(C)c1nc2c3ccc(F)cc3c3c(=O)[nH]ccc3c2[nH]1 ... 96.1
CCN1/C(=C/C(C)=O)Sc2ccc(OC)cc21 ... 97.1

Consider now this further molecule.
Given CS(=O)c1ccc(-c2nc(-c3ccc(F)cc3)c(-c3ccncc3)[nH]2)cc1 (stereo unspecified) , respond with its residual activity.
94.7

----------
# target_system: CDK2 CCNA2 (human) (UniProt P24941+P20248)
# Sequence (P20248 whole entry, looked up, other chains not shown): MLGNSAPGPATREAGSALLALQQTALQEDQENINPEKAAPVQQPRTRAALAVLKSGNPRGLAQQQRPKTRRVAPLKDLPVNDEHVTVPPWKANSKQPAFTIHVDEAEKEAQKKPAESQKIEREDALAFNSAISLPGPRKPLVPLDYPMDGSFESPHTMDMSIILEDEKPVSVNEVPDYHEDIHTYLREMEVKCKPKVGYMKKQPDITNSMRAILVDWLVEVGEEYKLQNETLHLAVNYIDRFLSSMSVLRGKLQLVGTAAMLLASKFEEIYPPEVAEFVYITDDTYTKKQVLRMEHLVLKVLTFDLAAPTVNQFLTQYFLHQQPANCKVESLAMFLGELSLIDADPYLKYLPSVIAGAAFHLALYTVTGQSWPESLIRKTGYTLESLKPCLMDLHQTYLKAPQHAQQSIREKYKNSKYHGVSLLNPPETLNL
# assay_summary: radiometric filter-binding kinase assay, Kinase HotSpot
# condition_label: compound 0.5 µM; ATP 10 µM
observation_type: residual activity (%)
Numbers only, in %.

O=C1Nc2ccccc2/C1=C\c1c(Cl)[nH]c2ccccc12 ... 91.5

Lab note: each compound below needs its residual activity filled in.
1. NC(=O)c1ccc(N(C(N)=O)c2c(F)cccc2F)nc1-c1ccc(F)cc1F
2. Cc1cc(Nc2cc(N3CCN(C)CC3)nc(Sc3ccc(NC(=O)C4CC4)cc3)n2)[nH]n1
3. Clc1ccc(Nc2nnc(Cc3ccncc3)c3ccccc23)cc1

1: 87.8; 2: 87.8; 3: 87.7
